- Tested on: 3T3-L1
- measurement notes: Cytotoxicity against mouse 3T3L1 cells assessed as cell viability at up to 40 ug/ml
- Format: cell-based
property measured: Activity

- COC(=O)CC[C@@H](C)[C@H]1CC(=O)[C@@]2(C)C3=C(C(=O)[C@@H](OC(C)=O)[C@]12C)[C@@]1(C)CC[C@H](O)C(C)(C)[C@@H]1C[C@@H]3O [METHYL LUCIDENATE P]: Non-toxic
- CC(CC(=O)C[C@@H](C)[C@H]1CC(=O)[C@@]2(C)C3=C(C(=O)C[C@]12C)[C@@]1(C)CC[C@H](O)C(C)(C)[C@@H]1C[C@@H]3O)C(=O)O (stereo partly drawn) [GANODERIC ACID B]: Non-toxic
- CCCCOC(=O)CC[C@@H](C)[C@H]1CC(=O)[C@@]2(C)C3=C(C(=O)C[C@]12C)[C@@]1(C)CC[C@H](O)C(C)(C)[C@@H]1C[C@@H]3O [BUTYL LUCIDENATE N]: Non-toxic
